Recorded Emax values for a group of compounds are listed next.
# testSystem: GABAA-R (Homo sapiens, UniProt P14867+P47870)
# Sequence (P14867 whole entry): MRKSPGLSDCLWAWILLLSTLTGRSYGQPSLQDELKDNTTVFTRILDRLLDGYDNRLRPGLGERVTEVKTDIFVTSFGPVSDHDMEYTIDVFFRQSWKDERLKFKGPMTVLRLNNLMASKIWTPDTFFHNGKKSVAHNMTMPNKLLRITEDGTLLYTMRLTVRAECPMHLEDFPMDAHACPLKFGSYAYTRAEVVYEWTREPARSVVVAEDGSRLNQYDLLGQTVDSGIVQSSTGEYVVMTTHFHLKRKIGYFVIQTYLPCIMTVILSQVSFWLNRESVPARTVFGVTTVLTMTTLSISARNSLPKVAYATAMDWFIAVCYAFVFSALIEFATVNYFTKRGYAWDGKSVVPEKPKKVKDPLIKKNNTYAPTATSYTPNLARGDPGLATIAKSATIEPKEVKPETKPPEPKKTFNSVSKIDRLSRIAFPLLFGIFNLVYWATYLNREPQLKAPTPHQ
# Sequence (P47870 whole entry): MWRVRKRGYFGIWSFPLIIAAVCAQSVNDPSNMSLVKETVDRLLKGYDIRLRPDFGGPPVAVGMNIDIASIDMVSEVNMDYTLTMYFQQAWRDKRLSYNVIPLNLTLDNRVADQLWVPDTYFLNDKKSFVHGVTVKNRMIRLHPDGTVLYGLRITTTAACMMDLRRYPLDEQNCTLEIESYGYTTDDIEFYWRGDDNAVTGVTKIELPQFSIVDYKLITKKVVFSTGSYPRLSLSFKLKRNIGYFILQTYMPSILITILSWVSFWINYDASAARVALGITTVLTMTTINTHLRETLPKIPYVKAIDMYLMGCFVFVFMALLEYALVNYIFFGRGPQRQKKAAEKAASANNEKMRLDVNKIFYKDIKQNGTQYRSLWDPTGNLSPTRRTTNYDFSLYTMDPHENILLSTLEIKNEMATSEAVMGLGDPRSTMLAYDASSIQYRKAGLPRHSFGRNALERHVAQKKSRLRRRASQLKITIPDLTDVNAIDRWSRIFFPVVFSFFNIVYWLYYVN
# assayInfo: Electrophysiological evaluation at GABAA-R (Table 2)
# Format: cell-based
# testConditions: GABAA-R electrophysiology

Below: 5 compounds and their reported Emax.
>  <compound>
C[C@@]1(O)CC[C@H]2[C@H](CC[C@@H]3[C@@H]2CC[C@]2(C)[C@@H](C(=O)Cn4cc(C#N)cn4)CC[C@@H]32)C1 [SA-4]

>  <testSystem>
GABAA-R (Homo sapiens, UniProt P14867+P47870)

>  <reportedValue>
0 to 500%

$$$$
>  <compound>
C[C@@]1(O)CC[C@H]2[C@H](CC[C@@H]3[C@@H]2CC[C@]2(C)[C@@H](C(=O)Cn4nccc4C(F)(F)F)CC[C@@H]32)C1 [SA-2]

>  <testSystem>
GABAA-R (Homo sapiens, UniProt P14867+P47870)

>  <reportedValue>
500 to 1000%

$$$$
>  <compound>
C[C@@]1(O)CC[C@H]2[C@H](CC[C@@H]3[C@@H]2CC[C@]2(C)[C@@H](C(=O)Cn4cc(Cl)cn4)CC[C@@H]32)C1 [SA-7]

>  <testSystem>
GABAA-R (Homo sapiens, UniProt P14867+P47870)

>  <reportedValue>
0 to 500%

$$$$
>  <compound>
Cc1ccn(CC(=O)[C@H]2CC[C@H]3[C@@H]4CC[C@@H]5C[C@](C)(O)CC[C@@H]5[C@H]4CC[C@]23C)n1 [SA-11]

>  <testSystem>
GABAA-R (Homo sapiens, UniProt P14867+P47870)

>  <reportedValue>
500 to 1000%

$$$$
>  <compound>
Cc1ccnn1CC(=O)[C@H]1CC[C@H]2[C@@H]3CC[C@@H]4C[C@](C)(O)CC[C@@H]4[C@H]3CC[C@]12C [SA-10]

>  <testSystem>
GABAA-R (Homo sapiens, UniProt P14867+P47870)

>  <reportedValue>
0 to 500%

$$$$

For the compound shown here, Cc1cnn(CC(=O)[C@H]2CC[C@H]3[C@@H]4CC[C@@H]5C[C@](C)(O)CC[C@@H]5[C@H]4CC[C@]23C)c1 [SA-6] , give the reported Emax.
0 to 500%

----------
Each entry below carries its reported Emax at 10 µM.
# testSystem: GABAA receptor α4β3δ (Homo sapiens, UniProt P28472+P48169)
# Construct: expressed in transfected cells; host or cells: CHO cells (transient, lipofection)
# Sequence (P48169 36-554): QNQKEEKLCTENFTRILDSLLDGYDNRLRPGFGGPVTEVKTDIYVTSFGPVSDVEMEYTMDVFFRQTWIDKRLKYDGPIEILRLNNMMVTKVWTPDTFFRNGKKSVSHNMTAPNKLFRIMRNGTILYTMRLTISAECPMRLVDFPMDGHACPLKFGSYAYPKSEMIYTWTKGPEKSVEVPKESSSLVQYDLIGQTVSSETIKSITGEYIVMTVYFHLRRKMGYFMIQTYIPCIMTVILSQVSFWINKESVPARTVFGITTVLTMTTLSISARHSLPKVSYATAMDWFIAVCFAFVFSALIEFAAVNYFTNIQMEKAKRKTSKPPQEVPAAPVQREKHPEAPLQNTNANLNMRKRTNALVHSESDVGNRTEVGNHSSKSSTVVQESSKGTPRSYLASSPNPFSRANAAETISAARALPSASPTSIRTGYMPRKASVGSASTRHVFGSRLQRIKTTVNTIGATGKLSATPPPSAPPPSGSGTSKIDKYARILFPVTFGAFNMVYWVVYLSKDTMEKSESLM
# Sequence (P28472 26-473): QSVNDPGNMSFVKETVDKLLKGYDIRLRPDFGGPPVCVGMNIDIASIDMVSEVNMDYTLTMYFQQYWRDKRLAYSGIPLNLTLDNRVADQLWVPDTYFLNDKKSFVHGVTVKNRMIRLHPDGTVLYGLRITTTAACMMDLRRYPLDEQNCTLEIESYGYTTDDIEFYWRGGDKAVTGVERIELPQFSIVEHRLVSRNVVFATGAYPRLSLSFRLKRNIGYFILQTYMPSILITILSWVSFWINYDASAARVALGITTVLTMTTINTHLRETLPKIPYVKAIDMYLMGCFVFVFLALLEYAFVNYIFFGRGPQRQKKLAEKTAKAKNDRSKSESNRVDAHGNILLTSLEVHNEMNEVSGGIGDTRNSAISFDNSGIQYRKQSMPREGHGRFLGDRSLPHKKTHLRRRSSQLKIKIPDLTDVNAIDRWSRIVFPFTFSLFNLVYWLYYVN
# Sequence (O14764 25-452 partner): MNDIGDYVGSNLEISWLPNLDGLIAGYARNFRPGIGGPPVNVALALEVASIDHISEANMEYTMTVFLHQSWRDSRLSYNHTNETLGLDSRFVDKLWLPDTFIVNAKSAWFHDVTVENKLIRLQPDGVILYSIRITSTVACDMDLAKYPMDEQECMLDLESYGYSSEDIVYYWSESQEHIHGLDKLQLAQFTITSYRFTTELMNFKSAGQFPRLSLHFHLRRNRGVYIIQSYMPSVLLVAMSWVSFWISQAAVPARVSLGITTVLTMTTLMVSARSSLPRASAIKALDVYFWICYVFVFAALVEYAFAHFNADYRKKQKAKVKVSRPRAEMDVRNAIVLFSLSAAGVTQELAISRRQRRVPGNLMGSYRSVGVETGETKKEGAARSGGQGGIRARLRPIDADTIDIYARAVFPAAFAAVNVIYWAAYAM
# assayInfo: Patch clamp electrophysiology, manual patch in CHO cells
# Type: cell-based
# testConditions: 10 μM test article, GABA EC20 2 μM, read-out: GABA (α4β3δ) Manual patch in CHO, % efficacy at 10 μM

Consider the following illustrative entries.
>  <testSmiles>
C[C@]12CC[C@H]3[C@@H](CC[C@@H]4C[C@@](O)(CF)CC[C@@H]43)[C@@H]1CC[C@@H]2C(=O)Cn1cc(C#N)cn1

>  <Emax at 10 µM>
> 500%

$$$$
>  <testSmiles>
C[C@@]1(O)CC[C@H]2[C@H](CC[C@@H]3[C@@H]2CC[C@]2(C)[C@@H](C(=O)Cn4cc(Cl)cn4)CC[C@@H]32)C1

>  <Emax at 10 µM>
> 500%

$$$$
>  <testSmiles>
C[C@@]1(O)CC[C@H]2[C@@H](CC[C@@H]3[C@@H]2CC[C@]2(C)[C@@H](C(=O)Cn4cccn4)CC[C@@H]32)C1

>  <Emax at 10 µM>
100 to 500%

$$$$
>  <testSmiles>
C[C@@]1(O)CC[C@H]2[C@H](CC[C@@H]3[C@@H]2CC[C@]2(C)[C@@H](C(=O)Cn4cccn4)CC[C@@H]32)C1

>  <Emax at 10 µM>
> 500%

$$$$
>  <testSmiles>
C[C@@]1(O)CC[C@H]2[C@H](CC[C@@H]3[C@@H]2CC[C@]2(C)[C@@H](C(=O)Cn4cc(C#N)cn4)CC[C@@H]32)C1

>  <Emax at 10 µM>
100 to 500%

$$$$

Proceeding to the next molecule to report its Emax at 10 µM.
What measured Emax at 10 µM goes with C[C@@]1(O)CC[C@H]2[C@@H](CC[C@@H]3[C@@H]2CC[C@]2(C)[C@@H](C(=O)Cn4cc(C#N)cn4)CC[C@@H]32)C1 ?
100 to 500%

----------
# testSystem: GABAA receptor α1β2γ2 (Homo sapiens, UniProt P14867+P47870)
# Construct: expressed in transfected cells
# Sequence (P18507 40-475 partner, one chain of several): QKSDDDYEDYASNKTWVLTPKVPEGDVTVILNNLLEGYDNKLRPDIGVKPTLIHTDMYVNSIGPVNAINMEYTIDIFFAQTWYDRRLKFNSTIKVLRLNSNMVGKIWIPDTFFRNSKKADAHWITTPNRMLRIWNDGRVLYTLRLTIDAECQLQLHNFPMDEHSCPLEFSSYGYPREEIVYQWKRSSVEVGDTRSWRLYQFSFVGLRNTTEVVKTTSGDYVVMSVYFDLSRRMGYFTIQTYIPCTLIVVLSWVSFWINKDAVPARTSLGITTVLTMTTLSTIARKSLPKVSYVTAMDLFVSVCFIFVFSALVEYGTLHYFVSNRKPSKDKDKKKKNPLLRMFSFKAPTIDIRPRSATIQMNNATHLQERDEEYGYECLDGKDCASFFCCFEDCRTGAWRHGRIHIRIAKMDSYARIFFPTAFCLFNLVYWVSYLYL
# assayInfo: Patch clamp electrophysiology, Qpatch in Ltk cells
# Assay type: cell-based
# testConditions: 10 μM test article, GABA EC20 2 μM, read-out: GABA (α1β2γ2) Qpatch in Ltk, % efficacy at 10 μM
Emax at 10 µM for assorted molecules

Below: 2 molecules and their reported Emax at 10 µM.
>  <testSmiles>
C[C@@]1(O)CC[C@@H]2[C@H]3CC[C@]4(C)[C@@H](C(=O)Cn5ccc(C#N)n5)CC[C@H]4[C@@H]3C[C@@H](F)[C@H]2C1

>  <recordedMetric>
Emax at 10 µM

>  <reportedValue>
100 to 500%

$$$$
>  <testSmiles>
C[C@@H]1C[C@H]2[C@@H](CC[C@@H]3[C@@H]2CC[C@]2(C)[C@@H](C(=O)Cn4cccn4)CC[C@@H]32)C[C@]1(C)O

>  <recordedMetric>
Emax at 10 µM

>  <reportedValue>
100 to 500%

$$$$

Would you kindly look at the next entry?
Give the measured Emax at 10 µM of COC[C@@]1(O)CC[C@H]2[C@@H](CC[C@@H]3[C@@H]2CC[C@]2(C)[C@@H](C(=O)Cn4cccn4)CC[C@@H]32)C1 .
> 500%

----------
# testSystem: GABAA receptor α1β2γ2 (Homo sapiens, UniProt P14867+P47870)
# Construct: expressed in transfected cells
# assayInfo: Patch clamp electrophysiology, Qpatch in Ltk cells
# Type: cell-based
# testConditions: 10 μM test article, GABA EC20 2 μM, read-out: GABA (α1β2γ2) Qpatch in Ltk, % efficacy at 10 μM
Some compounds, each annotated with its measured Emax at 10 µM.

>  <compound>
C[C@@]1(O)CC[C@@H]2[C@H]3CC[C@]4(C)[C@@H](C(=O)Cn5cccn5)CC[C@H]4[C@@H]3C[C@@H](F)[C@H]2C1 [SB-10]

>  <Emax at 10 µM>
100 to 500%

$$$$
>  <compound>
C[C@]12CC[C@H]3[C@@H](CC[C@@H]4C[C@@](O)(C(F)F)CC[C@@H]43)[C@@H]1CC[C@@H]2C(=O)Cn1cccn1 [SA-27]

>  <Emax at 10 µM>
100 to 500%

$$$$
>  <compound>
Cc1cc(C)n(CC(=O)[C@H]2CC[C@H]3[C@@H]4CC[C@@H]5C[C@](C)(O)CC[C@@H]5[C@H]4CC[C@]23C)n1 [SA-12]

>  <Emax at 10 µM>
100 to 500%

$$$$
>  <compound>
C[C@@]1(O)CC[C@@H]2[C@H]3CC[C@]4(C)[C@@H](C(=O)Cn5cc(C#N)cn5)CC[C@H]4[C@@H]3C[C@@H](F)[C@H]2C1 [SB-11]

>  <Emax at 10 µM>
100 to 500%

$$$$
>  <compound>
C[S+]([O-])c1cnn(CC(=O)[C@H]2CC[C@H]3[C@@H]4CC[C@@H]5C[C@](C)(O)CC[C@@H]5[C@H]4CC[C@]23C)c1 (stereo partly drawn) [SA-20]

>  <Emax at 10 µM>
100 to 500%

$$$$

Give its Emax at 10 µM value. Item: CC[C@@]1(O)CC[C@H]2[C@H](CC[C@@H]3[C@@H]2CC[C@]2(C)[C@@H](C(=O)Cn4cccn4)CC[C@@H]32)C1 [SA-35]
100 to 500%

----------
# testSystem: GABAA-R (Homo sapiens, UniProt P14867+P47870)
# assayInfo: Electrophysiological evaluation at GABAA-R (Table 2)
# Format: cell-based
# testConditions: GABAA-R electrophysiology; read-out: EC50
recordedMetric: EC50

Use these answered entries as a reference point.
>  <testSmiles>
C[C@@]1(O)CC[C@H]2[C@H](CC[C@@H]3[C@@H]2CC[C@]2(C)[C@@H](C(=O)Cn4cc(Br)cn4)CC[C@@H]32)C1

>  <testSystem>
GABAA-R (Homo sapiens, UniProt P14867+P47870)

>  <EC50>
100 to 500 nM

$$$$
>  <testSmiles>
Cc1ccn(CC(=O)[C@H]2CC[C@H]3[C@@H]4CC[C@@H]5C[C@](C)(O)CC[C@@H]5[C@H]4CC[C@]23C)n1

>  <testSystem>
GABAA-R (Homo sapiens, UniProt P14867+P47870)

>  <EC50>
1000 to 2000 nM

$$$$
>  <testSmiles>
C[C@@]1(O)CC[C@H]2[C@H](CC[C@@H]3[C@@H]2CC[C@]2(C)[C@@H](C(=O)Cn4cc(Cl)cn4)CC[C@@H]32)C1

>  <testSystem>
GABAA-R (Homo sapiens, UniProt P14867+P47870)

>  <EC50>
1000 to 2000 nM

$$$$

Returns the measured EC50 for the input compound. Input: C[C@@]1(O)CC[C@H]2[C@H](CC[C@@H]3[C@@H]2CC[C@]2(C)[C@@H](C(=O)Cn4ccc(C(F)(F)F)n4)CC[C@@H]32)C1
1000 to 2000 nM

Further, for C[C@@]1(O)CC[C@H]2[C@H](CC[C@@H]3[C@@H]2CC[C@]2(C)[C@@H](C(=O)Cn4nccc4C(F)(F)F)CC[C@@H]32)C1 ?
> 2000 nM

Taken from patent US12201640B2.
